Test system: Uterine Eosinophil Peroxidase (EPO)
Details: female, Sprague Dawley, rat, in vivo, po, 1 mg/kg, 4 days
Uterine EPO (V. max) for assorted compounds
Give your answer as a number; write no unit.

Here is how some compounds turned out for Uterine EPO (V. max).
| smiles.repr | value.kind | value.reported |
| --- | --- | --- |
| Oc1ccc2c(Cc3ccc(OCCN4CCCCC4)cc3)c(-c3ccccc3)ccc2c1 | Uterine EPO (V. max) | 3.9 |
| COc1ccc(-c2ccc3ccccc3c2Cc2ccc(OCCN3CCCCC3)cc2)cc1.Cl | Uterine EPO (V. max) | 5.2 |
| O=C(Oc1ccc(-c2ccc3cc(OC(=O)c4ccccc4)ccc3c2Cc2ccc(OCCN3CCCCC3)cc2)cc1)c1ccccc1 | Uterine EPO (V. max) | 4.2 |
| COc1ccc(-c2ccc3cc(OC)ccc3c2Cc2ccc(OCCN3CCCCC3)cc2)cc1.Cl | Uterine EPO (V. max) | 4.5 |
| CCCCS(=O)(=O)Oc1ccc(-c2ccc3cc(OS(=O)(=O)CCCC)ccc3c2Cc2ccc(OCCN3CCCCC3)cc2)cc1 | Uterine EPO (V. max) | 4.3 |

Okay, now this compound:
*Q* Fill in the blank: the reported Uterine EPO (V. max) of Cl.Oc1ccc(-c2ccc3cc(O)ccc3c2Cc2ccc(OCCN3CCCCC3)cc2)cc1 is ____.
*A* 4.8
